Assay: chemical genetic growth profiling, strain panel (AID 1159580);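 also: tested at 20 µM; growth read once vehicle control cultures reached saturation at 30 °C; 1 = growth at the plate median or of vehicle wells; lower values mean less growth of the strain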
Assay Conditions: S. cerevisiae deletion strains, growth OD, strain NNK1, hits give low values
Screen size: about 5,500 compounds; about 2,000 (36%) were called active. Inconclusive results (about 18%) are left out. This is one part of the list.
Below, each entry is listed alongside its reported normalized growth.
Please reply with the number alone, leaving off any unit.

Past entries and their recorded results:
> print(dat)
                                   molecule  property.measured  recorded.number
1  CC(C)(O)C#Cc1ccc(/C=N\Nc2c(Cl)cc(Cl)cc2Cl)cc1  normalized growth            0.972
2  COc1cc(C(=O)Oc2c(Cl)cc(Cl)cc2C=Nc2ccc([N+](=O)[O-])cc2C#N)cc(OC)c1OC  normalized growth            0.979
3            N=C(N)SCc1nc(-c2ccc(Cl)cc2)no1  normalized growth            0.992
4  COc1cc(N=Cc2cc(Cl)cc(Cl)c2OC(=O)c2cc(OC)c(OC)c(OC)c2)c(OC)cc1Cl  normalized growth             0.98
5  O=C(NCc1ccco1)c1csc(C2COc3ccccc3O2)n1 (stereo unspecified)  normalized growth            0.944
6       CCOC(=O)NC(=S)NC12CC3CC(CC(C3)C1)C2  normalized growth            0.988
7  CCOC(=O)CCc1cc(N=Cc2cc(Br)ccc2O)c(O)c(N=Cc2cc(Br)ccc2O)c1  normalized growth            0.964
8        O=C1/C(=C/c2c(F)cccc2Cl)Cc2ccccc21  normalized growth            0.943

Complete the entry with normalized growth for COc1ccccc1NC(=O)Nc1nn(C)c2cccc(OC)c12 0.908

Complete the entry with normalized growth for Cc1onc(-c2ccccc2Cl)c1-c1nc2ccccc2c(=O)o1 0.958

Complete the entry with normalized growth for CSc1c(C#N)c(-c2ccc(Cl)cc2)nn1C(=O)c1ccccc1Cl 0.959

----------
Below, each entry is listed alongside its reported normalized growth.
Assay: chemical genetic growth profiling, strain panel (AID 1159580)
Assay Conditions: S. cerevisiae deletion strains, growth OD, locus YOL012C, strain htz1
Hit rate of the full screen: of about 5,500 compounds, about 2,000 (36%) were called active. Another 18% or so got no clear call; they are omitted. The list shows a part of the results.
Please reply with the number alone, leaving off any unit.

Past entries and their recorded results:
Molecule	normalized growth
O=C(O)CNCP(=O)(O)O	0.788
CC(=O)O[C@H]1CC[C@@]2(C)C(=CCC3C2CC[C@@]2(C)C3CC[C@@H]2C(C)CCCC(C)C)C1 (stereo not given in full)	0.984
NCCCCN=C(N)N	0.814
CC(=O)OCC(=O)[C@@]12OC(C)(C)O[C@@H]1CC1C3C[C@H](F)C4=CC(=O)C=C[C@]4(C)[C@@]3(F)[C@@H](O)C[C@@]12C (stereo not given in full)	2.14

Complete the entry with normalized growth for COc1cc(C)c2c(c1C=O)Oc1c(c(C)c(O)c3c1C(O)OC3=O)OC2=O (stereo not given) 0.777

Complete the entry with normalized growth for CCC(CCC(C)C1CCC2C3CC=C4C[C@@H](OC(C)=O)CC[C@]4(C)C3CC[C@]12C)C(C)C (stereo not given in full) 1.41

----------
Assay: chemical genetic growth profiling, strain panel (AID 1159580)
Assay Conditions: S. cerevisiae deletion strains, growth OD, locus YOR270C, strain vph1, hits give low values
In all, about 5,500 compounds went through this assay and about 2,000 (36%) were called active. Inconclusive results (about 18%) are left out. This is one part of the list.
Below, each entry is listed alongside its reported normalized growth.
Please reply with the number alone, leaving off any unit.

Compound	Property Measured	Recorded Number
C[C@@H]1C[C@@H]([C@H](O)CC2CC(=O)NC(=O)C2)C(=O)[C@@H](C)C1	normalized growth	0.1

Complete the entry with normalized growth for CS(=O)(=O)OCCCCOS(C)(=O)=O 1.07

Complete the entry with normalized growth for CC[C@]12CCCN3CCc4c(n(c5ccccc45)[C@](O)(C(=O)OC)C1)[C@@H]32 0.988

----------
Below, each entry is listed alongside its reported normalized growth.
Assay: chemical genetic growth profiling, strain panel (AID 1159580)
Assay Conditions: S. cerevisiae deletion strains, growth OD, locus YMR263W, strain SAP30, hits give low values
About 2,000 (36%) of roughly 5,500 compounds were called active. Not shown: some 18% with an inconclusive outcome. The list shows a part of the results.

Complete the entry with normalized growth for COC(=O)c1ccc(C(=O)OC)nc1 1.02 (inactive)

Complete the entry with normalized growth for COc1c(C2COc3cc4c(cc3C2=O)CC(O)C(C)(C)O4)ccc2c1CCC(C)(C)O2 (stereo unspecified) 1 (inactive)

Complete the entry with normalized growth for Cc1cccc2nc(-c3ccccc3)oc(=O)c12 0.958 (inactive)

----------
Assay: chemical genetic growth profiling, strain panel (AID 1159580);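 also: tested at 20 µM; growth read once vehicle control cultures reached saturation at 30 °C; 1 = growth at the plate median or of vehicle wells; lower values mean less growth of the strain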
Assay Conditions: S. cerevisiae deletion strains, growth OD, locus YBR229C, strain ROT2, hits give low values
Among all 5,500 compounds or so, about 2,000 (36%) were called active. Roughly 18% stayed inconclusive and do not appear here. The list shows a part of the results.
Below, each entry is listed alongside its reported normalized growth.
Please reply with the number alone, leaving off any unit.

Compound	normalized growth
Cc1onc(-c2ccccc2Cl)c1C(=O)Nc1ccc2c(c1)OCO2	1.02
C=CCc1cc(OC)c2c(c1OC)OCO2	0.996
COc1cc(C(=O)O)c(O)c2c1OCO2	0.999

Complete the entry with normalized growth for c1cc2c(cc1[C@H]1OC[C@H]3[C@@H]1CO[C@H]3c1ccc3c(c1)OCO3)OCO2 0.941

Complete the entry with normalized growth for CC[C@@H](C(=O)[C@@H](C)[C@@H](O)[C@H](C)[C@@H]1O[C@@H]([C@@H](CC)C(=O)O)CC[C@@H]1C)[C@H]1OC2(C=C[C@@H](O)[C@]3(CC[C@@](C)([C@H]4CC[C@](O)(CC)[C@H](C)O4)O3)O2)[C@H](C)C[C@@H]1C (stereo partly drawn) 0.932

Complete the entry with normalized growth for COP(=S)(OC)Oc1ccc(SC)c(C)c1 1.02

Complete the entry with normalized growth for C[C@@H]1C[C@@H]([C@H](O)CC2CC(=O)NC(=O)C2)C(=O)[C@@H](C)C1 0.031

Complete the entry with normalized growth for COC(=O)[C@H]1[C@H]2C[C@@H]3c4[nH]c5cc(OC)ccc5c4CCN3C[C@H]2C[C@@H](OC(=O)c2cc(OC)c(OC)c(OC)c2)[C@@H]1OC 0.991

----------
Assay: chemical genetic growth profiling, strain panel (AID 1159580);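 also: tested at 20 µM; growth read once vehicle control cultures reached saturation at 30 °C; 1 = growth at the plate median or of vehicle wells; lower values mean less growth of the strain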
Assay Conditions: S. cerevisiae deletion strains, growth OD, locus YLR342W, strain FKS1 (second series), hits give low values
Out of some 5,500 compounds screened, about 2,000 (36%) were called active. Not shown: some 18% with an inconclusive outcome. The list shows a part of the results.
Friendly reminder: normalized growth below 1 is t, at or above is f.

Use the examples below as a reference point.
> print(dat)
                                   compound  classification
1              COc1cc(O)cc(/C=C/c2ccccc2)c1               t
2           COc1ccc(/C=C/c2cc(O)cc(O)c2)cc1               t
3  CCCN(CCC)C(=O)C(CCC(=O)O)NC(=O)c1ccccc1 (stereo not drawn)               f
4                        S=c1[nH]c2ccccc2s1               t
5               Oc1cc(O)cc(/C=C/c2ccccc2)c1               f

In plain terms, does CCCCC(CC)CN=C(N)NC(N)=NCCCCCCN=C(N)NC(N)=NCC(CC)CCCC (stereo not drawn) come in under 1 for normalized growth? t

In plain terms, does CCOC(=O)CCCCCCCCCCCCC1C=CCC1 (stereo not drawn) come in under 1 for normalized growth? t

----------
Assay: chemical genetic growth profiling, strain panel (AID 1159580);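 also: tested at 20 µM; growth read once vehicle control cultures reached saturation at 30 °C; 1 = growth at the plate median or of vehicle wells; lower values mean less growth of the strain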
Assay Conditions: S. cerevisiae deletion strains, growth OD, locus YGR229C, strain SMI1, hits give low values
About 2,000 (36%) of roughly 5,500 compounds were called active. About 18% were inconclusive and are not listed. The list shows a part of the results.
Below, each entry is listed alongside its reported normalized growth.
Please reply with the number alone, leaving off any unit.

Past entries and their recorded results:
> print(dat)
                               smiles.input  recorded.number
1                        COc1ccccc1N1CCNCC1            0.999
2         COc1ccccc1-c1cc(=O)c2cccc(OC)c2o1            0.617
3                    Cc1ccc(CS/C(N)=N\N)cc1            0.978
4  CC1=C(/C=C/C(C)=C/C=C/C(C)=C/C=C/C=C(C)/C=C/C=C(C)/C=C/C2=C(C)CCCC2(C)C)C(C)(C)CCC1                1
5           S=C(NCCCn1ccnc1)Nc1cc(Cl)ccc1Cl            0.994

Complete the entry with normalized growth for CCOC(=O)c1cc(-c2ccc(N)cc2)oc1C 0.964

Values from PubChem BioAssay AID1159580
